Target: MLK2 (Homo sapiens (Human), UniProt Q02779)
Sequence (Q02779 whole entry, looked up): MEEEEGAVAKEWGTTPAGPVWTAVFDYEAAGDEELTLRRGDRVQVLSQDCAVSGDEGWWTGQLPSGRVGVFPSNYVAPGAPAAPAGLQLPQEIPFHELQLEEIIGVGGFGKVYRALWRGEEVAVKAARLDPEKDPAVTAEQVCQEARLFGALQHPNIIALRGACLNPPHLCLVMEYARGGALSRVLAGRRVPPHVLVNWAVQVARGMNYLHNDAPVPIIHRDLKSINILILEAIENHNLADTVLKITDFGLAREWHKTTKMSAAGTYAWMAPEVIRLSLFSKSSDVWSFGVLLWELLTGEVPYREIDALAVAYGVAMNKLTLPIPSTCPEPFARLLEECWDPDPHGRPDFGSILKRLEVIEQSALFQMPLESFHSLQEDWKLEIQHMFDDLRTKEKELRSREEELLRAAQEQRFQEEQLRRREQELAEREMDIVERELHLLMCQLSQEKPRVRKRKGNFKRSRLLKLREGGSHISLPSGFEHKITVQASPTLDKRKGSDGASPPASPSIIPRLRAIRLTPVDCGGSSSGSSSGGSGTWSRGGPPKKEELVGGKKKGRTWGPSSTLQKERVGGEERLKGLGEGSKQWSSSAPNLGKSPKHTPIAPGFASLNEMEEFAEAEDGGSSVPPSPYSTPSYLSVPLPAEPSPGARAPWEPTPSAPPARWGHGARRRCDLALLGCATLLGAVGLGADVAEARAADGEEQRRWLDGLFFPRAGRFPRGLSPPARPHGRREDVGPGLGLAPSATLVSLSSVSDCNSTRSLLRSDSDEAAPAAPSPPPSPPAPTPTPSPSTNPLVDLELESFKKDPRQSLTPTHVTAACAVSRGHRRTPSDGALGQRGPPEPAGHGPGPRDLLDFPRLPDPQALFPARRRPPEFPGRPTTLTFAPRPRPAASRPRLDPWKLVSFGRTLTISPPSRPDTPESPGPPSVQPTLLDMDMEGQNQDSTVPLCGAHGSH
Assay: Evaluation of inhibitory activity of enzyme units, MLK2 ([γ-33P]-ATP filter assay)
Type: biochemical
# IC50 listing for each entry below

{"columns": ["compound", "reading.unit", "IC50"],
 "data": [
  ["CCS(=O)(=O)N1CC[C@H](Nc2c(Br)cnc3nc(-c4cc(C)n(-c5cccc(S(=O)(=O)NC)c5)c4C)[nH]c23)C1 [Example 18]", "nM", 109],
  ["COCCOc1ccc(Nc2c(Br)cnc3[nH]c(-c4cc(C)n(-c5ccc6c(c5)OCO6)c4C)nc23)cc1 [Example 45]", "nM", 524],
  ["CCS(=O)(=O)N1CC[C@H](Nc2c(Br)cnc3[nH]c(-c4cc(C)n(-c5cccc(C(=O)N6CCOCC6)c5)c4C)nc23)C1 [Example 6]", "nM", 181],
  ["CCS(=O)(=O)N1CC[C@H](Nc2c(Br)cnc3[nH]c(-c4cc(C)n(-c5ccc(C(=O)N6CCOCC6)cc5)c4C)nc23)C1 [Example 5]", "nM", 92],
  ["CCS(=O)(=O)N1CC[C@H](Nc2c(Br)cnc3nc(-c4cc(C)n(-c5cccc(C(N)=O)c5)c4C)[nH]c23)C1 [Example 20]", "nM", 217],
  ["Cc1cc(-c2nc3c(Nc4ccc5c(c4)OCO5)c(Br)cnc3[nH]2)c(C)n1-c1cccc(S(N)(=O)=O)c1 [Example 44]", "nM", 211],
  ["CCNS(=O)(=O)c1cccc(-n2c(C)cc(-c3nc4ncc(Br)c(N[C@H]5CCN(S(=O)(=O)CC)C5)c4[nH]3)c2C)c1 [Example 19]", "nM", 90]
]}

This collection of values is drawn from patent US12545673B2.
